- TARGET_OR_TEST_SYSTEM: Mouse EL (Mus musculus, UniProt Q9WVG5)
- Construct: host or cells: not described for mouse EL
- Sequence (Q9WVG5 21-500): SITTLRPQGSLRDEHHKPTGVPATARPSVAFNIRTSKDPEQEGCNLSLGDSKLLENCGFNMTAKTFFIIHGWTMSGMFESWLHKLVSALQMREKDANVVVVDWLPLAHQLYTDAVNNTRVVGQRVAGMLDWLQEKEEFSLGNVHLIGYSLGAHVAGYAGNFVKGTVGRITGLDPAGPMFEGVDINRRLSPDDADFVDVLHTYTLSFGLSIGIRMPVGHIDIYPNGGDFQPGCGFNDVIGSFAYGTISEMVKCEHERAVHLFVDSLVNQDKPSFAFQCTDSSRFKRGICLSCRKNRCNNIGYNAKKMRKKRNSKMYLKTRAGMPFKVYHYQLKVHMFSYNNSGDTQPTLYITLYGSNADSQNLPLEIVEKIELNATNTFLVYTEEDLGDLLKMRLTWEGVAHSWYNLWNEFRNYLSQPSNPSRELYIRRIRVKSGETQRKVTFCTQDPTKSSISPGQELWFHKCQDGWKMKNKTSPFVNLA
- PROCEDURE_SUMMARY: Endothelial Lipase Assay, cell surface lipase activity (mouse)
- Assay type: cell-based
- CONDITIONS: PLA1 substrate 10 μM, fluorescence reaction rate, several values in a cell are repeat determinations
Could you mark each record Y if its IC50 falls strictly under 200 nM, and N if it equals or exceeds it?

- CHEM_SMILES: "O=C(CCCCCCc1ccncc1)C(=O)NCc1nnc(-c2ccccc2)o1"
  CATEGORY: "N"
- CHEM_SMILES: "O=C(CCCCCCc1cccc(F)c1)C(=O)NCc1nnc(-c2ccc3ccccc3c2)o1"
  CATEGORY: "Y"
- CHEM_SMILES: "CC(C)(C)OC(=O)N(Cc1cccnc1)c1ccc(-c2nnc(CNC(=O)C(=O)CCCCCCc3ccccc3)o2)cc1"
  CATEGORY: "Y"
- CHEM_SMILES: "O=C(CCCCCCc1ccccc1)C(=O)NCc1nnc(-c2ccc(OCc3cc(F)cc(F)c3)cc2)s1"
  CATEGORY: "N"
- CHEM_SMILES: "O=C(CCCCCCc1ccccc1)C(=O)NCc1nnc(-c2ccc(Oc3ccccc3)cc2)s1"
  CATEGORY: "Y"
- CHEM_SMILES: "O=C(CCCCCCc1ccccc1)C(=O)NCc1nnc(-c2ccc(Oc3ccccc3)cc2)o1"
  CATEGORY: "Y"

====

- TARGET_OR_TEST_SYSTEM: human endothelial lipase (EL) (Homo sapiens)
- Sequence (Q9Y5X9 21-500): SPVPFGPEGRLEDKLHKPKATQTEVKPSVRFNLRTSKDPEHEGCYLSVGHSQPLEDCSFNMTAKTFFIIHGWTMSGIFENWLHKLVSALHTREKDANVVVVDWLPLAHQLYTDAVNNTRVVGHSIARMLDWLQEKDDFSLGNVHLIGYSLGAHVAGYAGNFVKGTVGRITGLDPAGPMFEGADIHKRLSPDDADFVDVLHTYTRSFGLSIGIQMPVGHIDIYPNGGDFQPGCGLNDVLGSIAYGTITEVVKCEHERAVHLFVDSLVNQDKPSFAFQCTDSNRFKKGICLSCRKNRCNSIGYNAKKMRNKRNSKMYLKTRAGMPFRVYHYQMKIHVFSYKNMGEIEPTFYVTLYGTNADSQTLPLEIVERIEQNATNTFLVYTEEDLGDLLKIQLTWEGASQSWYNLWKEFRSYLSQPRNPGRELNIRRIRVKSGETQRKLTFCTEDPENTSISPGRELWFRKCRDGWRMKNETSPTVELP
- PROCEDURE_SUMMARY: Endothelial Lipase Assay, cell surface lipase activity (human)
- CONDITIONS: cells expressing human EL, PLA1 substrate 10 μM, fluorescence reaction rate; several values in a cell are repeat determinations
- Protocol: Endothelial Lipase Assay (Human/Mouse) To assay for cell surface lipase activity, cells expressing human endothelial lipase (EL) or LPL were plated in CellBIND® 384-well plates (Corning, Lowell, Mass.) in 25 μL serum free medium at a density of 2000 cells/well. […] Fluorescence signal was monitored for 30 min at 37° C. on a Safire II plate reader in kinetic mode (60 cycles, kinetic interval: 30 seconds) with an excitation wavelength of 490 nm and an emission wavelength of 515 nm. […]
MEASURED_PARAMETER: IC50 (nM)

- CHEM_SMILES: "CN(Cc1ccc(F)c(F)c1)c1ccc(-c2nnc(CNC(=O)C(=O)CCCCCCc3ccccc3)o2)cc1"
  MEASURED_PARAMETER: "IC50"
  UNITS_OF_MEASURE: "nM"
  DATA_VALUE: 677
- CHEM_SMILES: "O=C(CCCCCCc1ccccc1)C(=O)NCc1nnc(-c2ccc(OCc3ccncc3F)cc2)s1"
  MEASURED_PARAMETER: "IC50"
  UNITS_OF_MEASURE: "nM"
  DATA_VALUE: 93
- CHEM_SMILES: "O=C(CCCCCCc1ccccc1)C(=O)NCc1nnc(-c2ccc3c(c2)OCO3)o1"
  MEASURED_PARAMETER: "IC50"
  UNITS_OF_MEASURE: "nM"
  DATA_VALUE: 457
- CHEM_SMILES: "CC(C)(C)OC(=O)N(Cc1ccccc1)c1ccc(-c2nnc(CNC(=O)C(=O)CCCCCCc3ccccc3)o2)cc1"
  MEASURED_PARAMETER: "IC50"
  UNITS_OF_MEASURE: "nM"
  DATA_VALUE: 515

The origin of these recorded values is patent US8476302B2.
